Recorded values, source patent US6653316B1.

- TARGET_UNDER_TEST: recombinant soluble tissue factor and recombinant human factor VIIa (TF-VIIa) (Homo sapiens, UniProt P08709)
- Construct: conversion of coagulation factor VII to VIIa by Xa
- Sequence (P08709 213-466 limits assumed): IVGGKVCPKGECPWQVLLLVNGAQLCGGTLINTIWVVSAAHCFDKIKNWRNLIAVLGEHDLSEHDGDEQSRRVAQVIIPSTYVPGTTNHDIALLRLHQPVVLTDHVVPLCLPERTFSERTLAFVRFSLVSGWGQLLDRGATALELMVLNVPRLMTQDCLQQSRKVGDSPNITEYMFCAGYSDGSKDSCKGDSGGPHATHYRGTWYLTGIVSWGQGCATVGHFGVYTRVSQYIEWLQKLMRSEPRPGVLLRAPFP
- Sequence (P08709 61-212 limits assumed): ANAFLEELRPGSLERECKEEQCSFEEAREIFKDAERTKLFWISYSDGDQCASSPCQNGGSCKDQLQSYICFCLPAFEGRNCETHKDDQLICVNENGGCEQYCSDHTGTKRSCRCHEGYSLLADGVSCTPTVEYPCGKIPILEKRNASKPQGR
- Sequence (P13726 33-251 partner limits assumed): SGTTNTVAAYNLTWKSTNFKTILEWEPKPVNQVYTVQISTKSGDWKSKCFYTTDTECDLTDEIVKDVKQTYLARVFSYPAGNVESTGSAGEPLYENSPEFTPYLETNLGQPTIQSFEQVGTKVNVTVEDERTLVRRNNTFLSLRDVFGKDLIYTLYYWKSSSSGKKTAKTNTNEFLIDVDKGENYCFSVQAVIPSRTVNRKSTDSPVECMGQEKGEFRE
- ASSAY_OVERVIEW: TF-VIIa Assay (chromogenic substrate hydrolysis, OD 405 nm)
- EXPERIMENTAL_PARAMETERS: cells without % sign; 60 min at room temperature; read-out: IC50 or % Inhibition TF-VIIa (30 μM): IC50
pIC50: −log10 of the molar value.
REPORTED_ENDPOINT: pIC50

Take a look at these entries with their results.
COC(=O)c1cc(N)cc(-c2ncc(NC(C)C)c(=O)n2CC(=O)NCc2ccc(C(=N)N)cc2)c1    7.10
N=C(N)c1ccc(CNC(=O)Cn2c(-c3cccc(N)c3)ncc(NC3CCC3)c2=O)cc1    7.10
CC(C)Nc1cnc(-c2cccc(N)c2)n(CC(=O)NCc2ccc(C(=N)N)cc2)c1=O    7.30
CC(C)Nc1cnc(-c2cccnc2)n(CC(=O)NCc2ccc(C(=N)N)cc2)c1=O    6.15

1 = N=C(N)c1ccc(CNC(=O)Cn2c(-c3ccccc3)ncc(NCCc3ccccc3)c2=O)cc1
2 = CC(C)Nc1cnc(-c2cc(N)cc(C(=O)O)c2)n(CC(=O)NCc2ccc(C(=N)N)cc2)c1=O
3 = N=C(N)c1ccc(CNC(=O)Cn2c(-c3ccccc3)ncc(NS(=O)(=O)Cc3ccccc3)c2=O)cc1
# input Hi! Can you put these in order of pIC50, lowest number first? List the labels in the requested order.
# output 3, 1, 2
(3: 4.81, 1: 6.00, 2: 7.15)
